Attribution: patent US9758486B1

System: human kidney cancer cells (A-498)
measurement protocol: MTT tumor cell proliferation inhibition test, A-498
Assay type: cell-based
test settings: A498, 48 h, read-out: Half Inhibitory Concentration IC50, A-498
measurement type: IC50 (µM)
Numeric only. Scale: µM

Tested system human kidney cancer cells (A-498); IC50 recorded for CC1=NN(c2ccccc2)C(=O)/C1=C\c1c(O)c(O)c(C(C)C)c2cc(C)c(-c3c(C)cc4c(C(C)C)c(O)c(O)c(C=O)c4c3O)c(O)c12 [Compound A] was 11.4

###

# pIC50 values compiled below
System: human kidney cancer cells (A-498)
measurement protocol: MTT tumor cell proliferation inhibition test, A-498
Type: cell-based
test settings: A498, A-498 cells, MTT, 48 hours treatment, read-out: Half Inhibitory Concentration IC50, A-498
Text: The compounds of the present invention were subjected to tumor cell proliferation inhibition test, and conventional MTT method was used. […] Experimental Principle: Living cells mitochondria in the dehydrogenase can reduce yellow MTT to water-insoluble blue-violet product MT (MTT formazan), deposited in the cells. […] DMSO can dissolve blue violet crystals, and the color depth is proportional to the amount contained, so the absorbance measured by the microplate reader can reflect the cell viability. […]
Notebook: values listed as pIC50 are -log10 of the concentration (mol/L).

Below: 3 compounds and their reported pIC50.
compound="COC1=NN(c2ccccc2)C(=O)/C1=C\\c1c(O)c(O)c(C(C)C)c2cc(C)c(-c3c(C)cc4c(C(C)C)c(O)c(O)c(C=O)c4c3O)c(O)c12 [E]" tested_target="human kidney cancer cells (A-498)" measurement_type=pIC50 measured_number=4.75
compound="COc1ccc(N2N=C(C)/C(=C/c3c(O)c(O)c(C(C)C)c4cc(C)c(-c5c(C)cc6c(C(C)C)c(O)c(O)c(C=O)c6c5O)c(O)c34)C2=O)cc1 [C]" tested_target="human kidney cancer cells (A-498)" measurement_type=pIC50 measured_number=4.60
compound="CC1=NN(c2ccc(C)cc2)C(=O)/C1=C\\c1c(O)c(O)c(C(C)C)c2cc(C)c(-c3c(C)cc4c(C(C)C)c(O)c(O)c(C=O)c4c3O)c(O)c12 [B]" tested_target="human kidney cancer cells (A-498)" measurement_type=pIC50 measured_number=4.43

The record that follows has no pIC50 shown yet.
// pIC50 value for CC1=NN(c2ccc(Cl)cc2)C(=O)/C1=C\c1c(O)c(O)c(C(C)C)c2cc(C)c(-c3c(C)cc4c(C(C)C)c(O)c(O)c(C=O)c4c3O)c(O)c12 [D] : 4.61

###

Tested on: human kidney cancer cells (A-498)
measurement protocol: MTT tumor cell proliferation inhibition test, A-498
Type: cell-based
test settings: A498, A-498 cells, MTT, 48 hours treatment, read-out: Half Inhibitory Concentration IC50, A-498
Listed molecules paired with reported IC50
Write the number in µM without appending the unit.

Below, 3 molecules whose answers are already recorded.
structure=COC1=NN(c2ccc(Cl)cc2)C(=O)/C1=C\c1c(O)c(O)c(C(C)C)c2cc(C)c(-c3c(C)cc4c(C(C)C)c(O)c(O)c(C=O)c4c3O)c(O)c12 unit_abbreviation=µM measured_number=26.5
structure=C=CC1=NN(c2ccc(C)cc2)C(=O)/C1=C\c1c(O)c(O)c(C(C)C)c2cc(C)c(-c3c(C)cc4c(C(C)C)c(O)c(O)c(C=O)c4c3O)c(O)c12 unit_abbreviation=µM measured_number=11.7
structure=C=CC1=NN(c2ccc(Cl)cc2)C(=O)/C1=C\c1c(O)c(O)c(C(C)C)c2cc(C)c(-c3c(C)cc4c(C(C)C)c(O)c(O)c(C=O)c4c3O)c(O)c12 unit_abbreviation=µM measured_number=13.8

Reported IC50 for Cc1cc2c(C(C)C)c(O)c(O)c(C=O)c2c(O)c1-c1c(C)cc2c(C(C)C)c(O)c(O)c(C=O)c2c1O was 11.3
